system: HeLa; experiment: Cytotoxicity against human HeLa cells after 3 days MTT assay; format: functional, cell-based; settings: 72 h
Items are presented alongside their recorded IC50.

{"COMPOUND": "C[C@H]1O[C@@H](n2cc(F)c(NC(=O)Oc3ccc(Cl)cc3)nc2=O)[C@H](O)[C@@H]1O", "IC50 [µg/mL]": 0.03}
{"COMPOUND": "CC(C)CCOC(=O)Nc1nc(=O)n([C@@H]2O[C@H](C)[C@@H](O)[C@H]2O)cc1F", "IC50 [µg/mL]": 0.09}
{"COMPOUND": "C[C@H]1O[C@@H](n2cc(F)c(NC(=O)Oc3ccc(Cl)cc3)nc2=O)[C@@H]2OC(=O)O[C@@H]21", "IC50 [µg/mL]": 0.006}
{"COMPOUND": "CCC(C)COC(=O)Nc1nc(=O)n([C@@H]2O[C@H](C)[C@H]3OC(=O)O[C@H]32)cc1F (stereo partly drawn)", "IC50 [µg/mL]": 0.18}
{"COMPOUND": "CCC(C)COC(=O)Nc1nc(=O)n([C@@H]2O[C@H](C)[C@@H](O)[C@H]2O)cc1F (stereo partly drawn)", "IC50 [µg/mL]": 0.09}
{"COMPOUND": "C[C@H]1O[C@@H](n2cc(F)c(NC(=O)Oc3ccc([N+](=O)[O-])cc3)nc2=O)[C@H](O)[C@@H]1O", "IC50 [µg/mL]": 0.01}
{"COMPOUND": "CC(C)CCOC(=O)Nc1nc(=O)n([C@@H]2O[C@H](C)[C@H]3OC(=O)O[C@H]32)cc1F", "IC50 [µg/mL]": 0.13}
{"COMPOUND": "CCCCCOC(=O)Nc1nc(=O)n([C@@H]2O[C@H](C)[C@@H](O)[C@H]2O)cc1F [CAPECITABINE]", "IC50 [µg/mL]": 0.05}
